# Tested on: human foreskin fibroblasts (HFFs)
# COND: Buffered DMEM, 7 d
READOUT_TYPE: CC50

[[record]]
compound = "Nc1nc(O)c2ncn(COC(CO)CO)c2n1 [Ganciclovir, ganciclovir]"
readout_type = "CC50"
data_value = "> 200 µM"


====

# System: ARPE-19 cells
# ASSAY_PROTOCOL: Cell effect in absence of virus assay, ARPE-19 cells, 72 h, Neutral Red
# Type: cell-based
# COND: ARPE-19, Buffered DMEM
READOUT_TYPE: CC50

[[record]]
smiles_input = "Nc1ccn(C[C@@H](CO)OCP(=O)(O)O)c(=O)n1"
data_value = "> 100 µM"


====

# ASSAY_PROTOCOL: in vitro
# COND: human, human foreskin fibroblasts (HFFs)
READOUT_TYPE: CC50 at 7 d

[[record]]
smiles_input = "Nc1nc(O)c2ncn(COC(CO)CO)c2n1"
data_value = "> 200 µM"


====

# ASSAY_PROTOCOL: in vitro
# Format: cell-based
# COND: human, Table 10 HSV1 half, ARPE-19, buffered medium
READOUT_TYPE: CC50 at 24 h

[[record]]
molecule = "Nc1nc2c(ncn2COCCO)c(=O)[nH]1 [Acyclovir, acyclovir]"
data_value = "≥ 100 µM"

